Overview of recorded Kd for various binders
target: canine FcRn (FcRn large subunit with canine beta-2-microglobulin) (canine); test: SPR pH 5.5, SASA-Fc captured on BSA, FcRn 100-800 nM
Kindly provide the numeric value in nM only, without the unit symbol.

# get_value(readout='Kd', item= canine IgGB Fc (CH2-CH3) L252Y with N-terminal SASA tag (Fc fusion, part only; not given: SASA tag, not shown: another chain or arm of the molecule; small tags and cut ends) Fc: APEMLGGPSVFIFPPKPKDTLYIARTPEVTCVVVDLDPEDPEVQISWFVDGKQMQTAKTQPREEQFNGTYRVVSVLPIGHQDWLKGKQFTCKVNNKALPSPIERTISKARGQAHQPSVYVLPPSREELSKNTVSLTCLIKDFFPPDIDVEWQSNGQQEPESKYRTTPPQLDEDGSYFLYSKLSVDKSRWQRGDTFICAVMHEALHNHYTQESLSHSPGK ) 173

Further cases:
# get_value(readout='Kd', item= canine IgGB Fc (CH2-CH3) A426H with N-terminal SASA tag (Fc fusion, part only; not given: SASA tag, not shown: another chain or arm of the molecule; small tags and cut ends) Fc: APEMLGGPSVFIFPPKPKDTLLIARTPEVTCVVVDLDPEDPEVQISWFVDGKQMQTAKTQPREEQFNGTYRVVSVLPIGHQDWLKGKQFTCKVNNKALPSPIERTISKARGQAHQPSVYVLPPSREELSKNTVSLTCLIKDFFPPDIDVEWQSNGQQEPESKYRTTPPQLDEDGSYFLYSKLSVDKSRWQRGDTFICHVMHEALHNHYTQESLSHSPGK ) 343
